All figures here come from patent US20220135701A1.

Kd listing for selected binders.
- System under test: T1, human MerTK (human, UniProt Q12866 26-499)
- T1 construct: also called HuMER
- T1 sequence: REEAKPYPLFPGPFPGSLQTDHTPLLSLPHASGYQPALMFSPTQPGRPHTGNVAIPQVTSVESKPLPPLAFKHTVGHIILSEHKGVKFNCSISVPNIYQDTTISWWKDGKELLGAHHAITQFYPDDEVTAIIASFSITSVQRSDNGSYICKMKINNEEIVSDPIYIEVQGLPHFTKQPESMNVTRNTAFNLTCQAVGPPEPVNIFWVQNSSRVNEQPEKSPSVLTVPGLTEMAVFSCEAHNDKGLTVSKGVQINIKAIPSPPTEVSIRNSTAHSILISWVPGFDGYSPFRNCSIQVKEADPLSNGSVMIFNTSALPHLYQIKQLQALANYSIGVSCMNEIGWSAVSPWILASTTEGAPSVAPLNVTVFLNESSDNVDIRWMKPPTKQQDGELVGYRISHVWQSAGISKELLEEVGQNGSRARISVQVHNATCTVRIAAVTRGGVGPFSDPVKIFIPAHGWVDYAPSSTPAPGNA
- Test method notes: SPR BIAcore T200, Ab captured, 25C
Could you give the number and then its unit, please?

Binder	Kd
Rbt10C3 (antibody, V domains shown, Recombinant rabbit monoclonal antibody, Expi293, protein A purified) VH: QSLEESGGRLVTPGTPLTLTCTASGFSLSGYTMGWVRQAPGKGLEYIGVISSGGTTYYTNWAKGRFTISKTSTTVDLKITSPTTEDTATYFCARVAFTAYGGGGFPTLHRLDLWGQGTLVTVSS VL: AQVLIQTASSVSAAVGGTVTISCQSSESVYNNDYLAWYQQKPGQPPKLLIYSASTLASGVPSRFKGSGSGTQFTLTISDLECDDAATYYCAGGYLGNNVFGGGTEVVVK	3.4 nM
Rbt11G11 (antibody, V domains shown, Recombinant rabbit monoclonal antibody, Expi293, protein A purified) VH: QELVESGGGLVQAGESLKLSCKASGIDFSSYGISWVRQAPGKGLEWIAYIYPGFGITNYAHSVKGRFTISSDNAQNTVFLQMPSLTASDTATYFCARDLDYTGGVVGYAYVTYYFTLWGPGTLVTVSS VL: DPVLTQTPSSVEAAVGGTVTIKCQASESISSRLAWYQQKPGQPPKLLIYSASTLASGVSSRFKGSGSGTEFTLTISDLECADAATYYCQTYYGGSTTGWYVFGGGTEVVVK	31.3 nM

INPUT: Quick one: Kd of Rbt8F4 (antibody, V domains shown, Recombinant rabbit monoclonal antibody, Expi293, protein A purified) VH: QSVQESGGRLVTPGTPLTLTCTVSGFSLINYPMSWVRQAPGKGLEWIGVISSTGGTNYASWAKGRFTISKTSTTVDLKITSPTTEDTATYFCARVDFLVYLGGAYIIWGLDLWGQGTLVTVSS VL: AAVLTQTPSPVSAAVGGTVTINCQSSPNIYSNYLSWFQQKPGQPPKILIYGASTLASGVPSRFKGSGSGTQFTLTISDVQCDDAATYYCAGGYSDSSEAYAFGGGTEVVVK ?
OUTPUT: 44 nM
